# measurement_notes: physchem
# test_parameters: mek

compound: C=CC(=O)Nc1cc(Nc2ncc(C(=O)OC(C)C)c(-c3cn(C)c4ccccc34)n2)c(OC)cc1N(C)[C@@H]1[C@@H]2CN(C)C[C@@H]21 [Free base crystalline form I]
Solubility: 2780 to 4440 µg/mL

###

# measurement_notes: physchem
# test_parameters: sgf
recorded_endpoint: solubility at 24 h

molecule: C=CC(=O)Nc1cc(Nc2ncc(C(=O)OC(C)C)c(-c3cn(C)c4ccccc34)n2)c(OC)cc1N(C)[C@@H]1[C@@H]2CN(C)C[C@@H]21 [Mesylate crystalline form I]
endpoint_result: > 5000 µg/mL

###

# measurement_notes: physchem
# test_parameters: acetone

compound: C=CC(=O)Nc1cc(Nc2ncc(C(=O)OC(C)C)c(-c3cn(C)c4ccccc34)n2)c(OC)cc1N(C)[C@@H]1[C@@H]2CN(C)C[C@@H]21 [Free base crystalline form I]
Solubility: 2220 to 4440 µg/mL

###

# test_parameters: FaSSIF, 0.5 h, 37 °C; 30 min
recorded_endpoint: Solubility

molecule: C=CC(=O)Nc1cc(Nc2ncc(C(=O)OC(C)C)c(-c3cn(C)c4ccccc34)n2)c(OC)cc1N(C)[C@@H]1[C@@H]2CN(C)C[C@@H]21 [Citrate crystalline form I]
recorded_endpoint: Solubility
endpoint_result: >5000 µg/mL
//
molecule: C=CC(=O)Nc1cc(Nc2ncc(C(=O)OC(C)C)c(-c3cn(C)c4ccccc34)n2)c(OC)cc1N(C)[C@@H]1[C@@H]2CN(C)C[C@@H]21 [Free base crystalline form I]
recorded_endpoint: Solubility
endpoint_result: 130 µg/mL
//
molecule: C=CC(=O)Nc1cc(Nc2ncc(C(=O)OC(C)C)c(-c3cn(C)c4ccccc34)n2)c(OC)cc1N(C)[C@@H]1[C@@H]2CN(C)C[C@@H]21 [Maleate crystalline form II]
recorded_endpoint: Solubility
endpoint_result: > 5030 µg/mL
//
molecule: C=CC(=O)Nc1cc(Nc2ncc(C(=O)OC(C)C)c(-c3cn(C)c4ccccc34)n2)c(OC)cc1N(C)[C@@H]1[C@@H]2CN(C)C[C@@H]21 [Mesylate crystalline form I]
recorded_endpoint: Solubility
endpoint_result: >5000 µg/mL

###

# measurement_notes: physchem
# test_parameters: heptane

molecule: C=CC(=O)Nc1cc(Nc2ncc(C(=O)OC(C)C)c(-c3cn(C)c4ccccc34)n2)c(OC)cc1N(C)[C@@H]1[C@@H]2CN(C)C[C@@H]21 [Free base crystalline form I]
Solubility: < 300 µg/mL

###

Items are presented alongside their recorded Solubility.
# test_parameters: H2O, 24 h, 37 °C; 1440 min

compound: C=CC(=O)Nc1cc(Nc2ncc(C(=O)OC(C)C)c(-c3cn(C)c4ccccc34)n2)c(OC)cc1N(C)[C@@H]1[C@@H]2CN(C)C[C@@H]21 [Citrate crystalline form I]
unit_info: µg/mL
value_operator: =
Solubility: 2440
//
compound: C=CC(=O)Nc1cc(Nc2ncc(C(=O)OC(C)C)c(-c3cn(C)c4ccccc34)n2)c(OC)cc1N(C)[C@@H]1[C@@H]2CN(C)C[C@@H]21 [Maleate crystalline form II]
unit_info: µg/mL
value_operator: =
Solubility: 1840
//
compound: C=CC(=O)Nc1cc(Nc2ncc(C(=O)OC(C)C)c(-c3cn(C)c4ccccc34)n2)c(OC)cc1N(C)[C@@H]1[C@@H]2CN(C)C[C@@H]21 [Free base crystalline form I]
unit_info: µg/mL
value_operator: =
Solubility: 10
//
compound: C=CC(=O)Nc1cc(Nc2ncc(C(=O)OC(C)C)c(-c3cn(C)c4ccccc34)n2)c(OC)cc1N(C)[C@@H]1[C@@H]2CN(C)C[C@@H]21 [Mesylate crystalline form I]
unit_info: µg/mL
value_operator: >
Solubility: 5000

###

# measurement_notes: physchem
# test_parameters: dcm

molecule: C=CC(=O)Nc1cc(Nc2ncc(C(=O)OC(C)C)c(-c3cn(C)c4ccccc34)n2)c(OC)cc1N(C)[C@@H]1[C@@H]2CN(C)C[C@@H]21 [Free base crystalline form I]
Solubility: > 107 mg/mL

###

# measurement_notes: in vivo
# test_parameters: rat, po, 30 mg/kg

compound: C=CC(=O)Nc1cc(Nc2ncc(C(=O)OC(C)C)c(-c3cn(C)c4ccccc34)n2)c(OC)cc1N(C)[C@@H]1[C@@H]2CN(C)C[C@@H]21 [Citrate crystalline form I]
unit_info: ng/mL
Cmax: 126

###

# measurement_notes: physchem
# test_parameters: 1,4-dioxane

molecule: C=CC(=O)Nc1cc(Nc2ncc(C(=O)OC(C)C)c(-c3cn(C)c4ccccc34)n2)c(OC)cc1N(C)[C@@H]1[C@@H]2CN(C)C[C@@H]21 [Free base crystalline form I]
Solubility: < 270 µg/mL

Values from patent EP4782444A1
